Listed next: entries and their corresponding MFI.
- ASSAYED_TARGET: SARS-CoV-2 Spike Protein (RBD) (R319-F541).hFc (SARS-CoV-2)
- ASSAY_INFO: Luminex beads, supernatant
PARAMETER: MFI (MFI)

[
  {
    "BINDER": "mAb10964 (antibody, V domains shown) VH: QVQLQESGPGLVKPSETLSLTCTVSGGSINNYYWIWIRQPPGKGLEWIGYIYHSGSTNYNPSLKSRVTISVDTSKNQFSLKVSSVTAADTAVYYCANMVRGVYEDDYWGQGTLVTVSS VL: DIQMTQSPSSLSASVGDRVTITCRASQSISNYLNWYQQKPGKAPKLLIFAASSLRSGVPSRFSGSGSGTDFTLTISSLHPEDFATYYCQQNYNTPLTFGPGTKVDIKR",
    "PARAMETER": "MFI",
    "ASSAY_RESULT": 33100
  },
  {
    "BINDER": "mAb10982 (antibody, V domains shown) VH: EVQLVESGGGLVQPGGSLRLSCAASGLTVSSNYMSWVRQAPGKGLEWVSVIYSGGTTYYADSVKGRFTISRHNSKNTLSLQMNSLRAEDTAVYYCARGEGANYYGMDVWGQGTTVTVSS VL: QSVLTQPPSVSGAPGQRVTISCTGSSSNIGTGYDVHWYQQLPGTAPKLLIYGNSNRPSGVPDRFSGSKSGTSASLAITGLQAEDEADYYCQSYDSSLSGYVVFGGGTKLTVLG",
    "PARAMETER": "MFI",
    "ASSAY_RESULT": 23000
  },
  {
    "BINDER": "mAb10967 (antibody, V domains shown) VH: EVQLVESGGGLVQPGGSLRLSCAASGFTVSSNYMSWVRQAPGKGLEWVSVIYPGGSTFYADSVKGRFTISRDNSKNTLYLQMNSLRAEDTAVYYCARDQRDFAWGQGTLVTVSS VL: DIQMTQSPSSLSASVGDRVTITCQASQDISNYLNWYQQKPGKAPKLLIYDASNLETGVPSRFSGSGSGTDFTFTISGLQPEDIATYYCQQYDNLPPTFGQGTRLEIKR",
    "PARAMETER": "MFI",
    "ASSAY_RESULT": 28700
  }
]
